Attribution: PubChem BioAssay

target-or-test-system: Fibroblast growth factor 2 (Homo sapiens) (UniProt P09038)
Sequence (P09038 whole entry, looked up): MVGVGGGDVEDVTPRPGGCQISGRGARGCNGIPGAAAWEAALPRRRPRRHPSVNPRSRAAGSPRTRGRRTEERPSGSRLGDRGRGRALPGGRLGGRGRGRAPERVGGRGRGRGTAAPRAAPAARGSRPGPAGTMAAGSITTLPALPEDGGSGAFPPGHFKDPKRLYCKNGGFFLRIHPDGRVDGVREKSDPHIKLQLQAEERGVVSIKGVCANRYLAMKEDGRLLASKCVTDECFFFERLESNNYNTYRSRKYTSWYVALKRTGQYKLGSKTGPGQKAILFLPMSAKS
measurement-notes: FGF2 binders on small-molecule microarrays, primary screen, biochemical, small-molecule microarray, 635/667 nm fluorescence (AID 1133)
protocol-conditions: small-molecule microarray binding, FGF2, fluorescence 635/667; higher = more signal
Lab note: compare composite z-score against 0.08. Equal or greater, write t. Smaller, write f.

>>> answer_label("COc1cc2c(cc1O)C=[N+](Cc1cccc(OC(F)(F)F)c1)CC2")
"f"
>>> answer_label("C=C(CCCC)C(=O)CC[C@@H](OC(=O)c1cccnc1)c1ccc(CO)o1")
"t"
>>> answer_label("O=C(O)[C@@]1(CCS(=O)(=O)c2ccccc2)COC(c2ccc(OCCCO)cc2)=N1")
"f"
>>> answer_label("C=CCN1C(=O)[C@]2(O[C@H](CCO)[C@@H]([Si](C)(C)c3ccc(OC)cc3)[C@@H]2C)c2cc(N3C(=O)c4cccc5cccc3c45)ccc21")
"t"
>>> answer_label("CC(C)N1C(=O)c2ccccc2[C@](C)(C(=O)NCc2ccccc2)[C@@H]1c1ccc(CO)cc1")
"f"

====

measurement-notes: adipocyte viability effects, profiling panel, cell-based, 3T3-L1 adipocytes, calcein-AM fluorescence, 48 h, basal (AID 1163); further: test concentration not given here
protocol-conditions: 3T3-L1 adipocytes viability, higher = more signal
Recorded z-score by entry
measured-quantity: z-score

>>> numeric_value("COC(=O)[C@@]1(Cc2ccc(OC)cc2)[C@H]2c3cc(C(=O)N4CCCC4)n(Cc4ccsc4Br)c3C[C@H]2CN1C(=O)c1ccccc1")
-0.793
>>> numeric_value("CC(C)C(CO)N1C(=O)[C@@H]2[C@H]3C(=O)OCC=C[C@H]3OC23C=CCN(C(C)C)C(=O)[C@@H]13 (stereo not given in full)")
0.877
>>> numeric_value("O=C1c2ccccc2[C@@]2(Cc3ccccc3N(CCN3CCOCC3)C2=O)[C@H](c2ccc(CO)cc2)N1Cc1ccccc1")
-0.238
>>> numeric_value("C=CC[C@]12N=C(c3ccc(OCCCO)cc3)O[C@H]1c1ccccc1N(Cc1ccccc1)C2=O")
-0.082
>>> numeric_value("C=CCN1C(=O)[C@]2(O[C@H](CCO)[C@@H]([Si](C)(C)c3ccc(OC)cc3)[C@@H]2C)c2cc(N3CCCCC3=O)ccc21")
0.257
>>> numeric_value("C=C(CCCC)C(=O)CC[C@@H](OC(=O)c1cccnc1)c1ccc(CO)o1")
0.149
>>> numeric_value("COCCOC(=O)N1C(=O)[C@@]2(c3cc(C#CCCO)ccc31)[C@H](C(=O)N1CCN(c3ncccn3)CC1)[C@H]1C(=O)O[C@H](c3ccccc3)[C@H](c3ccccc3)N1[C@@H]2c1ccccc1OCCO")
0.701
>>> numeric_value("COCCOC(=O)N1C(=O)[C@@]2(c3cc(C#Cc4ccc(OC)cc4)ccc31)[C@H](c1ccc(O)cc1)N1[C@H](c3ccccc3)[C@H](c3ccccc3)OC(=O)[C@H]1[C@@H]2C(=O)NC[C@H](O)c1ccccc1")
1.44
>>> numeric_value("C=C(CCCC)C(=O)CC[C@H](OC(=O)c1cccnc1)c1ccccc1OCCO")
1.54
>>> numeric_value("CCOC(=O)C=Cc1cc([N+](=O)[O-])ccc1O")
1.39
>>> numeric_value("CCOC(=O)C[C@H]1[C@H](OC(=O)c2cc3ccccc3oc2=O)[C@@H](NC(=O)Cc2ccc(OC)cc2)c2cc(OCCCO)ccc2N1C(=O)c1ccccc1")
2.17
>>> numeric_value("CN1C(=O)[C@]2(Cc3ccccc3)N=C(c3ccc(OCCCO)cc3)O[C@@H]2c2ccccc21")
1.71
>>> numeric_value("O=C1[C@H]2C=C(Br)[C@H](C[C@@H]2OCCCCO)[C@@]12CO2")
-1.26
>>> numeric_value("CC(C)(C)OC(=O)CC[C@@]1(C(N)=O)N=C(c2ccc(OCCCO)cc2)O[C@@H]1c1ccccc1")
-0.0721
>>> numeric_value("CCCCCN1CC=CC23O[C@@H]4/C=C\\CCCOC(=O)C4[C@H]2C(=O)N(CCCO)[C@@H]3C1=O (stereo not given in full)")
1.65
